Molecular target: T1, Cynomolgous monkey (cyno) TF-ECD with His Tag (cynomolgus monkey, UniProt P13726 33-251 (human entry))
T1 construct: also called cyno antigen
T1 chain: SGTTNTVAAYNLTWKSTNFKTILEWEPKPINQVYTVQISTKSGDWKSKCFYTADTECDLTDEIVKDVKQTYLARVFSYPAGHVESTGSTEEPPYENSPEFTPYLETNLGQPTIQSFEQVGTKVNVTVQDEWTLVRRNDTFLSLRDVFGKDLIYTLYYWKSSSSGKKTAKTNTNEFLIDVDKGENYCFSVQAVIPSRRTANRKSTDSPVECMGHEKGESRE
Assay: TF-ECD binding ELISA, chemiluminescent
metric-name: EC50 (µg/mL)

>  <binder>
M58 (antibody, V domains shown, complete MAb; FR4 is its own entry; also called H22/L2) VH: EVQLVQSGAEVKKPGESLRISCKGSGYTFITYWIEWVRQMPGKGLEWMGDILPGSGSTNYSPSFQGHVTISADKSISTAYLQWSSLKASDTAMYYCARSGYYGNSGFAYWGQGTLVTVSS VL: DIVMTQSPDSLAVSLGERATINCKSSQSLLSSGNQKNYLTWYQQKPGQPPKLLIYWASTRESGVPDRFSGSGSGTDFTLTISSLQAEDVAVYYCQNDYTYPLTFGQGTKLEIK

>  <metric-name>
EC50

>  <observed>
0.0198

$$$$
>  <binder>
M60 (antibody, V domains shown, complete MAb; FR4 is its own entry; also called H22/L4) VH: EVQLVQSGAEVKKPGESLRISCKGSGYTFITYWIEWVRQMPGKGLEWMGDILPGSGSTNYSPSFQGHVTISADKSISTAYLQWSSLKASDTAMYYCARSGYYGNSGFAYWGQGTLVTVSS VL: DIVMTQSPLSLPVTPGEPASISCKSSQSLLSSGNQKNYLTWYLQKPGQSPQLLIYWASTRESGVPDRFSGSGSGTDFTLKISRVEAEDVGVYYCQNDYTYPLTFGQGTKLEIK

>  <metric-name>
EC50

>  <observed>
0.0178

$$$$
>  <binder>
M9 (antibody, V domains shown, complete MAb; FR4 is its own entry; also called H15/L2) VH: EVQLVQSGAEVKKPGESLRISCKGSGYTFITYWIEWVRQMPGKGLEWMGDILPGSGSTNYNENFKGHVTISADKSISTAYLQWSSLKASDTAMYYCARSGYYGNSGFAYWGQGTLVTVSS VL: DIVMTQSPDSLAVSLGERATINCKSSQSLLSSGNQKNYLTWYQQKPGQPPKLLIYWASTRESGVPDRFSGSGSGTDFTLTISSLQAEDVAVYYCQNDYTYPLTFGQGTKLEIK

>  <metric-name>
EC50

>  <observed>
0.0199

$$$$
